# Experiment Notes: Angle of repose by injection method (fixed funnel method)
# Type: physicochemical
# Reported Conditions: average of 5 groups
Observable: angle of repose (°)
Answers are plain numbers, in °.

Please review the following examples before continuing.
NC(=O)CN1C[C@H](O)CC1=O [Example 3]	28.3
NC(=O)CN1C[C@H](O)CC1=O [Example 6]	27.8
NC(=O)CN1C[C@H](O)CC1=O [Example 4]	28.5
NC(=O)CN1C[C@H](O)CC1=O [Example 7]	28
NC(=O)CN1C[C@H](O)CC1=O [Example 5]	27.8

Proceeding to the next compound to report its angle of repose.
Tell me the measured angle of repose of NC(=O)CN1C[C@H](O)CC1=O [Example 1] , please.
28

---

# Experiment Notes: Stability test under high temperature conditions (60° C., 5 days), related substance
# Format: physicochemical
# Reported Conditions: 60° C., day 0, average of 5 groups
Observable: Day 0: Related substance (%)
Answers are plain numbers, in %.

NC(=O)CN1C[C@H](O)CC1=O [Example 4]	0.26
NC(=O)CN1C[C@H](O)CC1=O [Example 3]	0.22
NC(=O)CN1C[C@H](O)CC1=O [Example 7]	0.22
NC(=O)CN1C[C@H](O)CC1=O [Example 5]	0.25
NC(=O)CN1C[C@H](O)CC1=O [Example 1]	0.23

Proceeding to the next molecule to report its Day 0: Related substance.
Tell me the measured Day 0: Related substance of NC(=O)CN1C[C@H](O)CC1=O [Example 6] , please.
0.26

---

Record form. Attribute: Related material changes. Fill in for each entry.
# Experiment Notes: Stability test under high temperature conditions (60° C., 5 days), related substance
# Type: physicochemical
# Reported Conditions: 60° C., day 5 versus day 0
Output should be the measured figure followed by the unit it is expressed in.

NC(=O)CN1C[C@H](O)CC1=O [Example 5]	0.12%
NC(=O)CN1C[C@H](O)CC1=O [Example 4]	0.13%
NC(=O)CN1C[C@H](O)CC1=O [Example 3]	0.14%
NC(=O)CN1C[C@H](O)CC1=O [Example 7]	0.11%

Give measured Related material changes for every item shown.
1. NC(=O)CN1C[C@H](O)CC1=O [Example 6]
2. NC(=O)CN1C[C@H](O)CC1=O [Example 1]

["0.11%", "0.12%"]

---

# Experiment Notes: Solubility in water
# Type: physicochemical
Observable: solubility

Tell me the measured solubility of NC(=O)CN1C[C@H](O)CC1=O , please.
≥ 100 mg/mL
